Overview of recorded IC50 for various compounds
biological target: IDO (Homo sapiens); construct: endogenous in cells; experiment: Hela cell-based IDO inhibitory activity test (IFNγ added); details: Hela cells with IFNγ, 48 hours incubation, OD 480 nm
Sequence (P14902 whole entry): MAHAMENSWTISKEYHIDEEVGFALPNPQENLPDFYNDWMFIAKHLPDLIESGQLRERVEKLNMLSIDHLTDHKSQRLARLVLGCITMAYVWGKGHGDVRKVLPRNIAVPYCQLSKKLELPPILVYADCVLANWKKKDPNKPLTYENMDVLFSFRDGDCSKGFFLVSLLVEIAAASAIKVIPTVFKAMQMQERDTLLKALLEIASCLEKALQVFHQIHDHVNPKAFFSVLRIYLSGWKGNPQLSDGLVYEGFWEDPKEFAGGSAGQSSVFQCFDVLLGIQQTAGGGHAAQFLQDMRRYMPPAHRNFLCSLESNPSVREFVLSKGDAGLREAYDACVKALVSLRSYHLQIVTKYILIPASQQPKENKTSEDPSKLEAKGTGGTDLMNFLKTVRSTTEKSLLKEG

Reference set (2 entries):
{"COMPOUND": "CC#Cc1ccc(NC(=O)C(C)(C)[C@H]2C[C@H]3C[C@@H](c4ccnc5ccc(F)cc45)C[C@H]3C2)cn1", "IC50": "≤ 5 nM"}
{"COMPOUND": "O=C(Nc1ccc(Cl)cn1)C1C[C@@H]2C[C@H](c3ccnc4ccc(F)cc34)C[C@@H]2C1 (single isomer, unassigned) [Compound 107]", "IC50": "> 100 nM"}

Please provide the recorded IC50 for COC(=O)c1ccc(NC(=O)C(C)[C@H]2C[C@H]3C[C@@H](c4ccnc5ccc(F)cc45)C[C@H]3C2)cc1 (some centres unmarked) , tested on IDO (Homo sapiens).
5 to 25 nM

Please provide the recorded IC50 for O=C(C[C@@]1(F)C[C@H]2C[C@@H](c3ccnc4ccc(F)cc34)C[C@H]2C1)Nc1ccc(Cl)cc1 , tested on IDO (Homo sapiens).
5 to 25 nM

Please provide the recorded IC50 for O=C(Nc1ccc(Cl)cc1)C(=O)N1C[C@H]2C[C@@H](c3ccnc4ccc(F)cc34)C[C@H]2C1 , tested on IDO (Homo sapiens).
25 to 100 nM

Please provide the recorded IC50 for CC(C(=O)Nc1ccc(Cl)nc1)[C@H]1C[C@H]2C[C@@H](c3ccnc4ccc(F)cc34)C[C@H]2C1 (some centres unmarked) , tested on IDO (Homo sapiens).
≤ 5 nM

Please provide the recorded IC50 for C#Cc1ccc(NC(=O)C[C@@H]2C[C@@H]3C[C@H](c4ccnc5ccc(F)cc45)C[C@@H]3C2)cn1 , tested on IDO (Homo sapiens).
≤ 5 nM

Please provide the recorded IC50 for CC(C(=O)Nc1cncc(Cl)c1)[C@H]1C[C@H]2C[C@@H](c3ccnc4ccc(F)cc34)C[C@H]2C1 (some centres unmarked) , tested on IDO (Homo sapiens).
5 to 25 nM

Please provide the recorded IC50 for C#Cc1ccc(NC(=O)C[C@@H]2C[C@H]3CC(c4ccnc5ccc(F)cc45)C[C@H]3C2)cn1 (some centres unmarked) , tested on IDO (Homo sapiens).
≤ 5 nM

Please provide the recorded IC50 for C#Cc1ccc(NC(=O)C(C)(C)[C@H]2C[C@H]3C[C@@H](c4ccnc5ccc(F)cc45)C[C@H]3C2)nc1 , tested on IDO (Homo sapiens).
≤ 5 nM

Please provide the recorded IC50 for C#Cc1ccc(NC(=O)C[C@@H]2C[C@@H]3C[C@H](c4ccnc5ccc(F)cc45)C[C@@H]3C2)nc1 , tested on IDO (Homo sapiens).
≤ 5 nM

Please provide the recorded IC50 for CC(C(=O)Nc1ccc(Cl)cn1)[C@H]1C[C@H]2CC(c3ccnc4ccc(F)cc34)C[C@H]2C1 (mixture of isomers) , tested on IDO (Homo sapiens).
≤ 5 nM

Please provide the recorded IC50 for CC(C)(C(=O)Nc1ccc(Cl)cc1)[C@H]1C[C@H]2C[C@@H](c3ccnc4ccc(F)cc34)C[C@H]2C1 , tested on IDO (Homo sapiens).
≤ 5 nM

Please provide the recorded IC50 for O=C(C[C@@H]1C[C@@H]2CC(c3ccnc4ccc(F)cc34)=C[C@@H]2C1)Nc1ccc(Cl)cn1 , tested on IDO (Homo sapiens).
5 to 25 nM

Please provide the recorded IC50 for CC(C)(C(=O)Nc1ccc(C#N)cn1)[C@H]1C[C@H]2C[C@@H](c3ccnc4ccc(F)cc34)C[C@H]2C1 , tested on IDO (Homo sapiens).
≤ 5 nM

Please provide the recorded IC50 for CC#Cc1ccc(NC(=O)C(C)[C@H]2C[C@H]3C[C@@H](c4ccnc5ccc(F)cc45)C[C@H]3C2)cn1 (some centres unmarked) , tested on IDO (Homo sapiens).
> 100 nM

Please provide the recorded IC50 for N#Cc1ccc(NC(=O)C2([C@H]3C[C@H]4C[C@@H](c5ccnc6ccc(F)cc56)C[C@H]4C3)CC2)nc1 , tested on IDO (Homo sapiens).
≤ 5 nM

Please provide the recorded IC50 for N#Cc1ccc(NC(=O)C[C@H]2C[C@@H]3C[C@H](c4ccnc5ccc(F)cc45)C[C@@H]3C2)cn1 , tested on IDO (Homo sapiens).
5 to 25 nM

Please provide the recorded IC50 for O=C(Nc1ccc(Cl)cn1)/C(F)=C1/C[C@@H]2C[C@H](c3ccnc4ccc(F)cc34)C[C@@H]2C1 , tested on IDO (Homo sapiens).
> 100 nM

Please provide the recorded IC50 for CC(C(=O)Nc1ccc(Cl)cc1)C1=C[C@H]2C[C@@H](c3ccnc4ccc(F)cc34)C[C@H]2C1 (some centres unmarked) , tested on IDO (Homo sapiens).
≤ 5 nM
